# TESTED SYSTEM: Carbonic anhydrase 9 (Homo sapiens)
pKi: −log10 of the molar value.
Entries get a class label from measured pKi. See ranges: bottom bin (below 7), middle bin (7 to below 8), top bin (8 or more)

{"columns": ["STRUCTURE SMILES", "LABEL"],
 "data": [
  ["Cc1ccc(-c2nn3c(-c4ccc(S(N)(=O)=O)cc4)nnc3s2)cc1", "bottom bin"]
]}

Which class does NS(=O)(=O)c1ccc(-c2nnc3n2N=C(c2ccc(F)cc2)CS3)cc1 fall in?
middle bin

Which class does NS(=O)(=O)c1ccc(-c2nnc3n2N=C(c2ccc(Br)cc2)CS3)cc1 fall in?
top bin

Which class does NS(=O)(=O)c1ccc(-c2nnc3n2N=C(c2ccccc2)CS3)cc1 fall in?
middle bin

* * *

# TESTED SYSTEM: Carbonic anhydrase 9 (Homo sapiens)
READOUT NAME: pKi
Remember the convention: pKi equals -log10 of concentration in molar.

{"columns": ["STRUCTURE SMILES", "pKi"],
 "data": [
  ["Cc1ccc(-c2n[nH]c(=S)n2-c2ccc(S(N)(=O)=O)cc2)cc1", 7.80],
  ["NS(=O)(=O)c1ccc(-n2c(-c3ccc(Br)cc3)n[nH]c2=S)cc1", 8.12],
  ["NS(=O)(=O)c1ccc(-c2nnc3sc(-c4ccccc4)nn23)cc1", 6.94],
  ["Cc1ccc(C2=Nn3c(nnc3-c3ccc(S(N)(=O)=O)cc3)SC2)cc1", 7.89],
  ["NS(=O)(=O)c1ccc(-c2nnc3sc(-c4ccc(Br)cc4)nn23)cc1", 6.98]
]}

Continue with the molecule presented below.
Checklist item: pKi tested on Carbonic anhydrase 9 (Homo sapiens), entry NS(=O)(=O)c1ccc(-c2nnc3sc(-c4ccc(Cl)cc4)nn23)cc1 , value?
7.05

Data provenance is ChEMBL document CHEMBL3120130.
